Origin of the recorded values: patent US20180251431A1

- Test system: ALD patient fibroblasts
- measurement-description: Reduction in C26:0 LPC in ALD patient fibroblasts in vitro
- Type: cell-based, human
- test-context: Patient Fibroblast (CALD 1); half maximal reduction in C26:0 LPC; each number a separate measurement
- Method: Lysophosphatidylcholine (LPC) VLCFA were generated from straight chain VLCFA (SC-VLCFA) and were used clinically for newborn screening (Vogel et al., Mol. Genet. Metab. (2015) 114(4):599-603). In vitro efficacy studies were performed by measuring LPC VLCFA level (measured as LPC synthesis) in various cell lines, specifically in 1) human HEK cells, 2) patient derived cells, and 3) human microglia, which are disease relevant CNS cells. […] VLCFA Extraction and Quantitation on LCMS: […]
pIC50: −log10 of the molar value.
endpoint-label: pIC50

• O=C(Nc1ccn(-c2ccnc(F)c2)n1)C1(c2ccccc2F)CC1 = 7.64
